Here's what we have: IC50 numbers for UniProtKB Q13822.
VALUE_KIND: IC50

• CN(Cc1ccc2c(C(F)(F)F)c(O[C@H]3CC[C@@H](C(F)(F)F)CC3)ccc2c1)C[C@H]1CC[C@H](C(=O)O)CC1 = ≤ 500 nM
• CC1(C)C(NC(c2ccc3c(C(F)(F)F)c(O[C@H]4CC[C@@H](C(F)(F)F)CC4)ccc3c2)C2CC2)CC1C(=O)O (some centres unmarked) = ≤ 100 nM
• C[C@H](c1ccc2c(C(F)F)c(O[C@H]3CC[C@@H](C)CC3)ccc2c1)N1CCC[C@H](CC(=O)O)C1 = ≤ 100 nM
• O=C(O)CCC1CCC(NCc2ccc3c(C(F)(F)F)c(OC4CCC(C(F)(F)F)CC4)ccc3c2)CC1 (centres unmarked) = ≤ 500 nM
• CC1(C)C(NC(c2ccc3c(C(F)(F)F)c(O[C@H]4CC[C@@H](C)CC4)ccc3c2)C2CC2)CC1C(=O)O (some centres unmarked) = ≤ 250 nM
• O=C(O)CC1CCCN(Cc2ccc3c(C(F)(F)F)c(O[C@H]4CC[C@@H](C(F)(F)F)CC4)ccc3c2)C1 (relative stereo) = ≤ 250 nM
• C[C@H]1CC[C@@H](Oc2ccc3cc(CN4CCCC(CC(=O)O)C4)ccc3c2C(F)(F)F)CC1 (some centres unmarked) = ≤ 250 nM
• CC(C)CC(NC1CC(C(=O)O)C1(C)C)c1ccc2c(C(F)(F)F)c(O[C@H]3CC[C@@H](C(F)(F)F)CC3)ccc2c1 (relative stereo) = ≤ 250 nM
• O=C(O)C[C@H]1CCCN(Cc2ccc3c(C(F)(F)F)c(O[C@H]4CC[C@@H](C(F)(F)F)CC4)ccc3c2)C1 = ≤ 250 nM
• CC[C@H]1CC[C@@H](Oc2ccc3cc(CN4CCC[C@H](CC(=O)O)C4)ccc3c2C(F)(F)F)CC1 = ≤ 100 nM
• C[C@@H](c1ccc2c(C(F)F)c(O[C@H]3CC[C@@H](C)CC3)ccc2c1)N1CCC[C@H](CC(=O)O)C1 = ≤ 100 nM
• O=C(O)C1CCN(Cc2ccc3c(C(F)(F)F)c(N[C@H]4CC[C@@H](C(F)(F)F)CC4)ccc3c2)CC1 = ≤ 250 nM
• CC(c1ccc2c(C(F)F)c(O[C@H]3CC[C@@H](C)CC3)ccc2c1)N1CCC(C(=O)O)CC1 (relative stereo) = ≤ 100 nM
• CC1(C(=O)O)CCN(Cc2ccc3c(C(F)(F)F)c(O[C@H]4CC[C@@H](C(F)(F)F)CC4)ccc3c2)CC1 = ≤ 500 nM
